- assay_system: Serine/threonine-protein kinase NLK (Homo sapiens)
- Sequence (whole entry): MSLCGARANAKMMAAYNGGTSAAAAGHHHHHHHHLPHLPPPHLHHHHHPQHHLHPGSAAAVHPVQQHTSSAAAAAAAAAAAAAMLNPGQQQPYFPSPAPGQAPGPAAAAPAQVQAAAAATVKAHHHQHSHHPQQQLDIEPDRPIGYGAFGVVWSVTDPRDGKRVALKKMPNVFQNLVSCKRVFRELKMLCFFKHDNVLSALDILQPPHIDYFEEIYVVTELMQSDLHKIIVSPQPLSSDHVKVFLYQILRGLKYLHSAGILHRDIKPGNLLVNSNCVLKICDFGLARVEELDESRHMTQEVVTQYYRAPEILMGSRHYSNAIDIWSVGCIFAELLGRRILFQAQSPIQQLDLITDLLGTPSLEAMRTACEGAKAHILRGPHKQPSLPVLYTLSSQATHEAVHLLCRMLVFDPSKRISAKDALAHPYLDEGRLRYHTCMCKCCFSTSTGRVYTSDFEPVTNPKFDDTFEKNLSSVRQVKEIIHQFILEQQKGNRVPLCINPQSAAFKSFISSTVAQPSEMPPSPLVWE
- applied_conditions: at 10 µM
Use Yes when the recorded residual activity is no lower than 70%; use No when it is lower.

| smiles_code | answer_label |
| --- | --- |
| CCOc1cc2ncnc(Nc3cccc(Br)c3)c2cc1OCC | No |
| N#CCCc1ccc2c(c1)-c1[nH]c3ccc([N+](=O)[O-])cc3c1CC(=O)N2 | No |
| COc1ccc(C(=O)Nc2sc3c(c2C(N)=O)CCCC3)cc1OC | Yes |
| CO[C@H]1C[C@@H]2CC[C@@H](C)[C@@](O)(O2)C(=O)C(=O)N2CCCC[C@H]2C(=O)O[C@H]([C@H](C)C[C@@H]2CC[C@@H](O)[C@H](OC)C2)CC(=O)[C@H](C)/C=C(\C)[C@@H](O)[C@@H](OC)C(=O)[C@H](C)C[C@H](C)/C=C/C=C/C=C/1C | Yes |
| Cc1ccc(NC2=CC(=O)c3sc(C)nc3C2=O)cc1 | Yes |

Qu. In plain terms: is recorded residual activity at least 70% for COc1cccc(-c2cc(=O)c3ccccc3o2)c1N ?
Ans. Yes

Qu. In plain terms: is recorded residual activity at least 70% for CC(=O)O/N=C1\C(=C2\C(=O)Nc3cc(Br)ccc32)Nc2ccccc21 ?
Ans. Yes

Qu. In plain terms: is recorded residual activity at least 70% for CCC(=O)Nc1ccc2ncnc(Nc3cccc(Br)c3)c2c1 ?
Ans. No

Qu. In plain terms: is recorded residual activity at least 70% for Nc1ccc2ncnc(NCCc3ccc(Oc4ccccc4)cc3)c2c1 ?
Ans. Yes

Qu. In plain terms: is recorded residual activity at least 70% for Nc1cccc(-c2cc3c(Oc4cccc(O)c4)ncnc3[nH]2)c1 ?
Ans. No
